- assay_target: human NaV subtype, like NaV 1.7 (Homo sapiens, UniProt Q15858)
- Sequence (Q15858 whole entry): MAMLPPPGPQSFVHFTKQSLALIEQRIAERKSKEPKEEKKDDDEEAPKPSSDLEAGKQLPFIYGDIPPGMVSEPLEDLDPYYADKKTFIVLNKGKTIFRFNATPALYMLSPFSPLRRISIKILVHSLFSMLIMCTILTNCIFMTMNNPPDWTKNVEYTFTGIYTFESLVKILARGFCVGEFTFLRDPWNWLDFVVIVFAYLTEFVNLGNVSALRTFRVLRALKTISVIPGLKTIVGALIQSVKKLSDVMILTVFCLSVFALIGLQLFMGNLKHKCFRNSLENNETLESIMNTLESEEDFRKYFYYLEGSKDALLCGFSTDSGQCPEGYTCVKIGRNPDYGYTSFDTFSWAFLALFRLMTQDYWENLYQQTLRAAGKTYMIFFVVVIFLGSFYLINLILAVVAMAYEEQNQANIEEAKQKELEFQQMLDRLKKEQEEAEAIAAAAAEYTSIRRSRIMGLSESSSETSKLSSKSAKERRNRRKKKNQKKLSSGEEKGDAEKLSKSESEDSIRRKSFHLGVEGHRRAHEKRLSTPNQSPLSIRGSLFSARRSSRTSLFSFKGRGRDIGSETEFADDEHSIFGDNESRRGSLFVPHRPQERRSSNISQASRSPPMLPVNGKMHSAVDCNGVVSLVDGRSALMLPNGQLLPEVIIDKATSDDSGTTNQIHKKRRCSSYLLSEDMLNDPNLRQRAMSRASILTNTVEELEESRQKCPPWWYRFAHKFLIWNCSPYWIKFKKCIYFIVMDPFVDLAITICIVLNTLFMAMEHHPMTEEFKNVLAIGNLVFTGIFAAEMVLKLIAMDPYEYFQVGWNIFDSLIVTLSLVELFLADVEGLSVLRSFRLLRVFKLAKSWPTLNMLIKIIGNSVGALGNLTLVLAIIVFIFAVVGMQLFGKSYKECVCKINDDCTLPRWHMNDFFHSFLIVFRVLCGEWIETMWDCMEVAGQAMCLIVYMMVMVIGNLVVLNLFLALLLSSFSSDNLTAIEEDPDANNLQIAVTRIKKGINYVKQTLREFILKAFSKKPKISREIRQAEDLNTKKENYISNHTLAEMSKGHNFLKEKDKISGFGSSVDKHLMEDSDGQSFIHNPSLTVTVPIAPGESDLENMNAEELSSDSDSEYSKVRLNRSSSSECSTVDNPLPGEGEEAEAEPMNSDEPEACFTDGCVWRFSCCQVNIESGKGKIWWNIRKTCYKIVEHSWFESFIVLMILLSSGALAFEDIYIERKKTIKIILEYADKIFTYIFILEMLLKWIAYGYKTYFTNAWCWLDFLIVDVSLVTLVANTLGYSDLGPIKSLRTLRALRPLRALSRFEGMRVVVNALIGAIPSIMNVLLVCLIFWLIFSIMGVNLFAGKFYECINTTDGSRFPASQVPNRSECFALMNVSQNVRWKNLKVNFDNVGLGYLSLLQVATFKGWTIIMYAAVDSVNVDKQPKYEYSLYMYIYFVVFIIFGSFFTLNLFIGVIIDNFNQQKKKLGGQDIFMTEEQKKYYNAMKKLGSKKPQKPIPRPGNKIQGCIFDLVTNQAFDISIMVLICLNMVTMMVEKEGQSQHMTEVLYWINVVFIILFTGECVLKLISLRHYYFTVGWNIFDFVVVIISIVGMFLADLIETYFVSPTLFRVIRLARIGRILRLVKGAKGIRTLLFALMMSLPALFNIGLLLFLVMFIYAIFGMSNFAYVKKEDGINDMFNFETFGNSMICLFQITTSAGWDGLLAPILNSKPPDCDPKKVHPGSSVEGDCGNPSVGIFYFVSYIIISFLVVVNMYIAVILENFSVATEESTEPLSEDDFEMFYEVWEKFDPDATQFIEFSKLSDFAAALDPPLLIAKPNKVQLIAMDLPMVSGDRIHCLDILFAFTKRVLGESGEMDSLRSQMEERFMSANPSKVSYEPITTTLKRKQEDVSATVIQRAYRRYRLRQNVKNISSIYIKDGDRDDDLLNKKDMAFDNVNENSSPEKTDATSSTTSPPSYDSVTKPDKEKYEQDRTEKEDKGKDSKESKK
- experimental_protocol: E-VIPR optical membrane potential assay with electrical stimulation
- condition_set: active against one or more sodium channels; Table 3 does not name the assay or NaV subtype; read-out: Binned Activity Data (IC50)
observable: IC50

Known IC50 results, listed for orientation:
>  <substance_smiles>
CN1CCn2c(Cl)ccc2C12CCN(C(=O)c1ccc(Cc3ccccc3)cc1)CC2

>  <IC50>
> 5 µM

$$$$
>  <substance_smiles>
CCc1ccc(C(=O)N2CCC3(CC2)c2ccc(C(F)(F)F)n2CCN3C)nc1

>  <IC50>
> 5 µM

$$$$
>  <substance_smiles>
CC(C)(O)c1ccc(C(=O)N2CCC3(CC2)c2ccc(C(F)(F)F)n2CCN3CC(F)(F)F)cc1

>  <IC50>
≤ 2 µM

$$$$

[Q] I am curious: what IC50 value has been reported for `CC(C)Oc1ccc(C(=O)N2CCC3(CC2)c2ccc(Cl)n2CCN3C)cc1CO` ?
[A] 2 to 5 µM

---

- assay_target: human NaV subtype, like NaV 1.7 (Homo sapiens)
- experimental_protocol: E-VIPR optical membrane potential assay with electrical stimulation
- condition_set: active against one or more sodium channels; Table 3 does not name the assay or NaV subtype; read-out: Binned Activity Data (IC50)
pIC50: −log10 of the molar value.
observable: pIC50

Example entries begin here.
>  <substance_smiles>
COc1nc(C(=O)N2CCC3(CC2)c2c(Cl)cc(C(F)(F)F)n2CCN3C)ccc1OC(C)C

>  <assay_target>
human NaV subtype, like NaV 1.7 (Homo sapiens)

>  <observed_value>
≥ 5.70

$$$$
>  <substance_smiles>
COc1ccc(C(=O)N2CCC3(CC2)NC(C)(C)Cn2c(C(=O)C(F)(F)F)ccc23)cc1Cl

>  <assay_target>
human NaV subtype, like NaV 1.7 (Homo sapiens)

>  <observed_value>
≥ 5.70

$$$$
>  <substance_smiles>
Cc1cc(C(=O)N2CCC3(CC2)c2ccc(C(F)(F)F)n2CCN3C)ccc1S(C)(=O)=O

>  <assay_target>
human NaV subtype, like NaV 1.7 (Homo sapiens)

>  <observed_value>
< 5.30

$$$$

Turning to the following molecule.
[Q] Consider the molecule `Cc1cc(C(=O)N2CCC3(CC2)c2ccc(C(=O)C(C)C)n2CCN3C)ccc1OC(C)C` and give its measured pIC50.
[A] ≥ 5.70

---

For each record, write down the corresponding pIC50.
- assay_target: human NaV subtype, like NaV 1.7 (Homo sapiens)
- experimental_protocol: E-VIPR optical membrane potential assay with electrical stimulation
- condition_set: active against one or more sodium channels; Table 3 does not name the assay or NaV subtype; read-out: Binned Activity Data (IC50)
pIC50: −log10 of the molar value.

Below are worked cases with known answers.
>  <compound>
CN1CCn2c(C(F)(F)F)cc(F)c2C12CCN(C(=O)c1ccc(C3(O)CCC3)cc1)CC2

>  <observed_value>
≥ 5.70

$$$$
>  <compound>
CC[C@H](C)Oc1ccc(C(=O)N2CCC3(CC2)c2c(F)cc(C(F)(F)F)n2CCN3C)cc1OC

>  <observed_value>
≥ 5.70

$$$$
>  <compound>
COc1ccc(C(=O)N2CCC3(CC2)c2ccc(C(=O)C(F)(F)F)n2CCN3C)cc1C(F)(F)F

>  <observed_value>
≥ 5.70

$$$$
>  <compound>
Cc1cc(C(=O)N2CCC3(CC2)c2ccc(C(=O)C(F)(F)F)n2CCN3C)ccc1-c1c[nH]nc1C(F)(F)F

>  <observed_value>
< 5.30

$$$$
>  <compound>
COc1cc(C(=O)N2CCC3(CC2)c2ccc(C(F)(F)F)n2CCN3C2CCC2)ccc1OC(C)C

>  <observed_value>
5.30 to 5.70

$$$$

Parameters: items (list). Returns: pIC50 for each item.
1. COc1cc(C(=O)N2CCC3(CC2)c2ccc(C(=O)C(F)(F)F)n2C(C)CN3C)ccc1OCCOC(F)(F)F (stereo not drawn)
2. CCc1ccc(C(=O)N2CCC3(CC2)c2ccc(C(F)(F)F)n2CCN3CCOC)cc1OC

[A]
1: ≥ 5.70; 2: ≥ 5.70

Working through the 3 compounds below one at a time, give pIC50 for each.
1. Cc1cc(C(=O)N2CC[C@]3(c4ccc(C(F)(F)F)n4CCN3C)[C@H](F)C2)ccc1C(C)(C)O
2. CC[C@H](C)Oc1ccc(C(=O)N2CCC3(CC2)c2ccc(Cl)n2CCN3C)cc1OC
3. Cc1cc(C(=O)N2CCC3(CC2)c2ccc(C(F)(F)F)n2CCN3C2CC2)ccc1OC(C)C

[A]
1. ≥ 5.70
2. 5.30 to 5.70
3. ≥ 5.70

# per-item lookup of pIC50; items listed below
1. COc1ccc(C(=O)N2CCC3(CC2)c2ccc(C(=O)C(C)(C)C)n2CCN3C)cc1C
2. CC(C)Oc1ccc(C(=O)N2CCC3(CC2)c2ccc(Cl)n2CCN3C)cc1Cl
3. CC(C)Oc1ccc(C(=O)N2CCC3(CC2)NC(C)(C)Cn2c(C(F)(F)F)ccc23)cc1Cl
4. Cc1cc(C(=O)N2CCC3(CC2)c2ccc(C(F)(F)F)n2CCN3C)ccc1OCC(C)(C)O
5. COc1cc(C(=O)N2CCC3(CC2)N[C@H]2CCCC[C@H]2n2cccc23)ccc1C(C)(C)C

[A]
≥ 5.70
≥ 5.70
≥ 5.70
≥ 5.70
≥ 5.70

---

Would you kindly list pIC50 for each of these compounds?
- assay_target: human NaV subtype, like NaV 1.7 (Homo sapiens)
- experimental_protocol: E-VIPR optical membrane potential assay with electrical stimulation
- condition_set: active against one or more sodium channels; Table 3 does not name the assay or NaV subtype; read-out: Binned Activity Data (IC50)
pIC50: −log10 of the molar value.

Examples with their reported pIC50 follow.
>  <compound>
COc1cc(C(=O)N2CCC3(CC2)c2ccc(C(F)(F)F)n2C[C@@H](C)N3C)ccc1OC(C)C [Compound 677]

>  <assay_target>
human NaV subtype, like NaV 1.7 (Homo sapiens)

>  <pIC50>
< 5.30

$$$$
>  <compound>
Cc1cc(C(=O)N2CCC3(CC2)c2ccc(C(F)(F)F)n2CCN3C)ccc1C1COC1 [Compound 658]

>  <assay_target>
human NaV subtype, like NaV 1.7 (Homo sapiens)

>  <pIC50>
≥ 5.70

$$$$
>  <compound>
CC(=O)c1ccc2n1C(C)(C)CN(C)C21CCN(C(=O)c2ccc(C3CCCCC3)cc2)CC1 [Compound 361]

>  <assay_target>
human NaV subtype, like NaV 1.7 (Homo sapiens)

>  <pIC50>
≥ 5.70

$$$$

For every item in the list below, what is its measured pIC50?
1. Cc1cc(C(=O)N2CCC3(CC2)c2ccc(C(=O)C(C)(C)C)n2CCN3C)ccc1C(C)(C)O [Compound 523]
2. CCOc1ccc(C(=O)N2CCC3(CC2)c2ccc(C(=O)C(F)(F)F)n2CCN3C)cc1OCC [Compound 510]
3. CNS(=O)(=O)c1ccc(C(=O)N2CCC3(CC2)c2ccc(C(=O)C(F)(F)F)n2CCN3C)cc1C [Compound 194]
4. O=C(c1ccc(Oc2ccccc2)cc1)N1CCC2(CC1)NCCn1c(C(F)(F)F)ccc12 [Compound 374]

[A]
≥ 5.70
≥ 5.70
≥ 5.70
< 5.30

Record pIC50 per entry; entries follow.
1. CCOc1cc(C(=O)N2CCC3(CC2)c2ccc(C(F)(F)F)n2CCN3C)ccc1OC [Compound 730]
2. COc1cc(C(=O)N2CCC3(CC2)c2ccc(C(F)(F)C(F)(F)F)n2CCN3C)ccc1OC(C)C [Compound 722]
3. Cc1cc(C(=O)N2CCC3(CC2)NCC(C)(C)n2c(C(F)(F)F)ccc23)ccc1C(C)(C)O [Compound 128]
4. Cc1cc(C(=O)N2CCC3(CC2)c2ccc(CC(F)(F)F)n2CCN3C)ccc1C(C)(C)O [Compound 593]
5. COc1cc(C(=O)N2CCC3(CC2)c2ccc(C(=O)C(F)(F)F)n2CCN3C)ccc1COCC(F)(F)F [Compound 17]
6. COc1cc(C(=O)N2CCC3(CC2)c2c(C#N)cc(C(F)(F)F)n2CCN3C)ccc1OC(C)C [Compound 742]
7. CC(C)Oc1ccc(C(=O)N2CCC3(CC2)c2ccc(CC(F)(F)F)n2CCN3C)cc1Cl [Compound 11]

[A]
≥ 5.70
≥ 5.70
≥ 5.70
≥ 5.70
≥ 5.70
5.30 to 5.70
≥ 5.70

[Q] Param item = COc1cc(C(=O)N2CCC3(CC2)NC(C)(C)Cn2c(C(=O)C(F)(F)F)ccc23)ccc1COCCC(F)(F)F [Compound 480] ; retrieve measured pIC50.
[A] ≥ 5.70

---

- assay_target: human NaV subtype, like NaV 1.7 (Homo sapiens, UniProt Q15858)
- experimental_protocol: E-VIPR optical membrane potential assay with electrical stimulation
- condition_set: active against one or more sodium channels; Table 3 does not name the assay or NaV subtype; read-out: Binned Activity Data (IC50)
pIC50: −log10 of the molar value.
Assign pIC50 to each entry below.

>  <molecule>
CC(=O)c1ccc2n1CCN(C)C21CCN(C(=O)c2ccc(Oc3ccccc3)cc2)CC1 [Compound 78]

>  <assay_target>
human NaV subtype, like NaV 1.7 (Homo sapiens, UniProt Q15858)

>  <pIC50>
5.30 to 5.70

$$$$
>  <molecule>
COc1cc(C(=O)N2CCC3(CC2)N[C@H](C)Cn2c(C(F)(F)F)ccc23)ccc1OC(C)C [Compound 179]

>  <assay_target>
human NaV subtype, like NaV 1.7 (Homo sapiens, UniProt Q15858)

>  <pIC50>
5.30 to 5.70

$$$$

List the reported pIC50 of each molecule below.
1. Cc1cc(C(=O)N2CCC3(CC2)c2ccc(C(F)(F)C(F)(F)F)n2CCN3C)ccc1OCCCO [Compound 96]
2. CC(C)Oc1ccc(C(=O)N2CCC3(CC2)c2ccc(C(F)(F)C(F)(F)F)n2CCN3C)cc1Cl [Compound 664]
3. CC1CN(C)C2(CCN(C(=O)c3ccc(COCCC(F)(F)F)cc3)CC2)c2ccc(C(=O)C(F)(F)F)n21 (stereo not shown) [Compound 8]
4. COc1cc(C(=O)N2CCC3(CC2)NC(C)(C)Cn2c(C(=O)C(F)(F)F)ccc23)ccc1COCC(F)(F)F [Compound 467]
5. Cc1cc(C(=O)N2CCC3(CC2)c2ccc(C(F)(F)F)n2CCN3C2CCC2)ccc1OC(C)C [Compound 106]

[A]
1: ≥ 5.70; 2: ≥ 5.70; 3: ≥ 5.70; 4: ≥ 5.70; 5: ≥ 5.70
